system: E21 (patient-derived glioblastoma stem cells of mesenchymal subtype); assay: surviving fraction (nuclei count normalised to DMSO); higher = more cells surviving (less toxic); conditions: 4.11523 nM; exposure time: 72 h;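 also: nuclei counted by high-content imaging of Hoechst-stained cells in laminin-coated 384-well plates, relative to 0.1% DMSO vehicle wells, with staurosporine as cell-death control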
test_readout: surviving fraction

INSERT INTO measurements (compound, number) VALUES
  ('COC(=O)Nc1nc2cc(C(=O)c3cccs3)ccc2[nH]1', 0.506),
  ('O=[N+]([O-])c1ccc2c(c1)S(=O)(=O)C=C2', 0.828),
  ('COc1cc([C@@H]2c3cc4c(cc3[C@@H](O[C@@H]3O[C@@H]5CO[C@@H](C)O[C@H]5[C@H](O)[C@H]3O)[C@H]3COC(=O)[C@H]23)OCO4)cc(OC)c1O [Etoposide]', 0.896),
  ('CC(C)C[C@H](NC(=O)[C@H](Cc1ccccc1)NC(=O)c1cnccn1)B(O)O', 0.00595);
